Values compiled from patent US20230233569A1.

Target: NRAS Q61R (Homo sapiens, UniProt P01111+P62937, Q61R)
Sequence (P01111 whole entry Q61R): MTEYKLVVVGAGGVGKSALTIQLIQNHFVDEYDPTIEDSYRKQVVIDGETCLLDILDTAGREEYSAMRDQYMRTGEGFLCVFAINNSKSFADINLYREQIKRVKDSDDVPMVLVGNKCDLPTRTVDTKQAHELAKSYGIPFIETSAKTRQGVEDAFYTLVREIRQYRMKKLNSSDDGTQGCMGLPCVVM
Sequence (P62937 whole entry): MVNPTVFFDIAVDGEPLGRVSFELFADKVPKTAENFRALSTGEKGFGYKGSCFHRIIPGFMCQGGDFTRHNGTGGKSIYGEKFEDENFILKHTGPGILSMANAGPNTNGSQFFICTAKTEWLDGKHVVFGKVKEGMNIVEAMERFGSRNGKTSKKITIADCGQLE
Experiment: Disruption of BRAF RBD interaction with Ras (FRET / MOA assay, with Cyclophilin A)
Assay type: biochemical
Conditions: NRAS Q61R; read-out: NRAS Q61R FRET data IC50
pIC50: −log10 of the molar value.
Property Measured: pIC50

Before answering, review these 2 worked examples.
Compound	Result
CCn1c(-c2cccnc2[C@H](C)OC)c2c3cc(ccc31)-c1csc(n1)C[C@H](NC(=O)[C@H](C(C)C)N(C)C(=O)N1[C@H](C)CN(C)C[C@H]1C)C(=O)N1CCC[C@H](N1)C(=O)OCC(C)(C)C2	6.00 to 7.00
CCn1c(-c2cccnc2[C@H](C)OC)c2c3cc(ccc31)-c1csc(n1)C[C@H](NC(=O)[C@H](C(C)C)N(C)C(=O)N1CCC[C@H]1CN(C)C)C(=O)N1CCC[C@H](N1)C(=O)OCC(C)(C)C2	5.00 to 6.00

## Task Report pIC50 for C=CC(=O)N1CC[C@H](C(=O)N(C)[C@H](C(=O)N[C@H]2Cc3cccc(c3)-c3ccc4c(c3)c(c(-c3cccnc3[C@H](C)OC)n4CC)CC(C)(C)COC(=O)C3CCCN(N3)C2=O)[C@@H](C)C(F)(F)F)C1 (stereo partly shown)
## Result 5.00 to 6.00

## Task Report pIC50 for C=CC(=O)N1CC2(C1)OCCN2C(=O)N(C)[C@H](C(=O)N[C@H]1Cc2nc(cs2)-c2ccc3c(c2)c(c(-c2cccnc2[C@H](C)OC)n3CC)CC(C)(C)COC(=O)C2CCCN(N2)C1=O)C(C)C (stereo partly shown)
## Result 6.00 to 7.00
